Give measured pKi for each item. Keep answers brief.
Sequence of the target: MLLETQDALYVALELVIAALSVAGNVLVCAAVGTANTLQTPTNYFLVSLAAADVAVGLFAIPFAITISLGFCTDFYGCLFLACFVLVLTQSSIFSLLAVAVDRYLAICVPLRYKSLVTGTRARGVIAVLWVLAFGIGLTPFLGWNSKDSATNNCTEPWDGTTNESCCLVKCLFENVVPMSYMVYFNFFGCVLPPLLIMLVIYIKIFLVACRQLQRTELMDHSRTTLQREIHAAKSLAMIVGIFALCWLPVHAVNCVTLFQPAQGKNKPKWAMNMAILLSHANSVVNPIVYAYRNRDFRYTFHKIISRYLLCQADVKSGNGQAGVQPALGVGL
Scale note: pKi = -log10(concentration in M).

Incoming: Entry "O=C(Nc1ccc(-c2ccncc2)c(-c2ccccn2)n1)C1CC1" : reported pKi = ?
Outgoing: 7.33

Incoming: # pKi lookup, item "O=C(Nc1ccc(-c2ccncn2)c(-c2ccco2)n1)C1CC1"
Outgoing: 8.40

Incoming: Endpoint output: pKi of "O=C(Nc1ccc(-c2ccncc2)c(-c2nccs2)n1)C1CC1" . Value?
Outgoing: 7.38

Incoming: Which pKi reading was recorded for the compound "CC(=O)Nc1ccc(-c2ccncn2)c(-c2ccco2)n1" ?
Outgoing: 7.33

Incoming: Find the recorded pKi belonging to "Cc1ccc(-c2nc(NC(=O)C3CC3)ccc2-c2ccncc2)o1" and report it.
Outgoing: 8.30

Incoming: Give its pKi value. Item: "O=C(Nc1ccc(-c2ccncc2)c(-c2ccncc2)n1)C1CC1"
Outgoing: 7.85
